Recorded pIC50 by entry
- SYSTEM TESTED: USP7 (Homo sapiens);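 further: fluorescence intensity readout of USP7 enzymatic activity, reaction incubated 90 min at room temperature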
- Sequence (Q93009 whole entry): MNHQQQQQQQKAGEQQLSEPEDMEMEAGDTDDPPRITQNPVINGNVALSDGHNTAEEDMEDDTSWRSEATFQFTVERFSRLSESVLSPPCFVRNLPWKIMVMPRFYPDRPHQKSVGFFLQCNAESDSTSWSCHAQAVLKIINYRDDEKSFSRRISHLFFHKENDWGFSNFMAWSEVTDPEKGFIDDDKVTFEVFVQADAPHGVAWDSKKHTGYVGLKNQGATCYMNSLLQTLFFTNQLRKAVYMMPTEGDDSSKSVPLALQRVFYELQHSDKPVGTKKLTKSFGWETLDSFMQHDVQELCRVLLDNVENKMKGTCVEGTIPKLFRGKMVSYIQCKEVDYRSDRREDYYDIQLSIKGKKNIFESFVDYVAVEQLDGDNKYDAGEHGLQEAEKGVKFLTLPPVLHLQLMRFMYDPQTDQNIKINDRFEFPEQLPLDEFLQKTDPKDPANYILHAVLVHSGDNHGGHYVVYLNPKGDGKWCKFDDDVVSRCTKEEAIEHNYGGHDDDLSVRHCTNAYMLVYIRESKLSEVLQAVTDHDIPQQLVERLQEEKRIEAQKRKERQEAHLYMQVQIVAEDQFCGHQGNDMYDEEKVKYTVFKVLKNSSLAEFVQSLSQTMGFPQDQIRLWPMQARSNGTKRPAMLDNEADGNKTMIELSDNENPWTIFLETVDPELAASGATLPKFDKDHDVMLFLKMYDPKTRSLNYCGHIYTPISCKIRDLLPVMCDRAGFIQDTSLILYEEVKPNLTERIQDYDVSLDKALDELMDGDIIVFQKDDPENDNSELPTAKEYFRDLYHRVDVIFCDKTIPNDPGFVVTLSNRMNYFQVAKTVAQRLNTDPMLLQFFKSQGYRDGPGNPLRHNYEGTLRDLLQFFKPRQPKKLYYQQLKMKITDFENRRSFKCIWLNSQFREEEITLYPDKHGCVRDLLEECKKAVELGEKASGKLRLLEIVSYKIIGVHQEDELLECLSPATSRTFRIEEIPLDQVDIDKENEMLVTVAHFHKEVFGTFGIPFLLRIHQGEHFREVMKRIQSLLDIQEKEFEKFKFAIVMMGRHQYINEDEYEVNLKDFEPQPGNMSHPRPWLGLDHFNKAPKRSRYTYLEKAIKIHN
pIC50: −log10 of the molar value.

Take a look at these entries with their results.
- COMPOUND: "O=C1CCC(=O)N1Cc1cc2nccc(-c3cc(Cl)cc4c3N([C@@H]3CN(CCc5nnn[nH]5)C5(CCC5)C3)CCC4)c2s1"
  RESULT TYPE: "pIC50"
  RESULT: "7.00 to 8.00"
- COMPOUND: "O=C1CCC(=O)N1Cc1cc2nccc(-c3cc(Cl)cc4c3N(C3CC5(CNC5)C3)CCC4)c2s1"
  RESULT TYPE: "pIC50"
  RESULT: "7.00 to 8.00"
- COMPOUND: "O=C1CNCC(=O)N1Cc1cc2nccc(-c3cc(Cl)cc4c3N(C3CNC3)CCC4)c2s1"
  RESULT TYPE: "pIC50"
  RESULT: "> 8.00"
- COMPOUND: "C[C@H](c1cc2nccc(-c3cc(C#N)cc4c3N([C@@H]3CCNC3)CCC4)c2s1)N1C(=O)CCC1=O (single isomer, unassigned) [Example 112c]"
  RESULT TYPE: "pIC50"
  RESULT: "6.00 to 7.00"

Let's switch to this compound now.
[Q] // returns reported pIC50 for input O=C1CCC(=O)N1Cc1cc2nccc(-c3cc(C(F)(F)F)cc4c3N(C3CNC5(CCC5)C3)CCO4)c2s1 (single isomer, unassigned) [Example 175b]
[A] > 8.00
